Target: hAT1R (Homo sapiens, UniProt P30556)
Sequence (P30556 whole entry): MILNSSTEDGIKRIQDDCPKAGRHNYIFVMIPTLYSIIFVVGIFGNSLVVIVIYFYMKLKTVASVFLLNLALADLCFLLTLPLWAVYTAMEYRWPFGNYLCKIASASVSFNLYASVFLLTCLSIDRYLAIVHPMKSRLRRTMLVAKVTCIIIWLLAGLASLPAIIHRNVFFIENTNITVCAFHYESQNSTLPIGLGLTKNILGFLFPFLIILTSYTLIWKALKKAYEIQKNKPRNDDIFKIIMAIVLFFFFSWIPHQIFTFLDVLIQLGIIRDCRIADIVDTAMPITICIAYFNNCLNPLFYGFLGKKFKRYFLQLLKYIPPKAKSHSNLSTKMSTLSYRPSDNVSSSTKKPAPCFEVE
Test: FLIPR calcium flux assay, Part II: antagonist activity against Angiotensin II; note: Angiotensin II 10 nM final concentration
Type: cell-based
Conditions: read-out: hAT1R Antagonist Efficacy Antag (%) Ave
Experimental: AT1 receptor (AT1R) agonists increase intracellular flux of calcium ions. AT1R antagonists can reduce the agonist effect. […] Intracellular flux of calcium in response to agonist was measured through real-time measurement of fluorescence induced through the interaction of Ca2+ (released from intracellular stores) and calcium-sensitive dye. In Part I, cells were exposed to varying concentrations of test compounds and immediately measured for agonist activity (EC50 and Efficacy). […]
Starred links: 1 amine or outer side, 2 acyl side, 3 side chain; linkers in the order of their positions; H or OH if unused. Non-standard residues stand in square brackets, D forms with d. Residues, ends and D or L forms follow the SMILES beside them. X1 = O=C(CN(C[C@H](O)[C@@H](O)[C@H](O)[C@H](O)CO)[*:1])[*:2]; dPhe(2-Me) = Cc1ccccc1C[C@@H](N)C(=O)O; Chg = N[C@H](C(=O)O)C1CCCCC1
READOUT_NAME: Emax (%)
Answer format: numeric, % implied, no suffix.

{"COMPOUND": "CNCC(=O)N[C@@H](CCCNC(=N)N)C(=O)N[C@H](C(=O)N[C@@H](Cc1ccc(O)cc1)C(=O)N[C@H](C(=O)N[C@@H](Cc1c[nH]cn1)C(=O)N1CCC[C@H]1C(=O)N[C@H](Cc1ccccc1C(F)(F)F)C(=O)O)C(C)C)C(C)C [Compound 3] (HELM PEPTIDE1{[Sar].R.V.Y.V.H.P.[O=C(O)[C@@H](Cc1ccccc1C(F)(F)F)N[*:1]]}$$$$V2.0)", "READOUT_NAME": "Emax", "UNIT": "%", "VALUE_REPORTED": 99}

// next entry
// query Look up Emax: Cc1ccccc1C[C@@H](NC(=O)[C@@H]1CCCN1C(=O)[C@H](Cc1c[nH]cn1)NC(=O)[C@@H](NC(=O)[C@H](Cc1ccc(O)cc1)NC(=O)[C@@H](NC(=O)[C@H](CCCNC(=N)N)NC(=O)CNC[C@H](O)[C@@H](O)[C@H](O)[C@H](O)CO)C(C)C)C1CCCCC1)C(=O)O [Compound 46] (H-[X1]RVY[Chg]HP[dPhe(2-Me)]-OH)
// result 100
